Known Enzyme degradation CDK9 (% remaining) @ 1 μM of a selection of compounds
# SYSTEM_TESTED: CDK9 (Homo sapiens, UniProt P50750)
# Construct: endogenous in cells; host or cells: MDA-MB-231
# Sequence (P50750 whole entry): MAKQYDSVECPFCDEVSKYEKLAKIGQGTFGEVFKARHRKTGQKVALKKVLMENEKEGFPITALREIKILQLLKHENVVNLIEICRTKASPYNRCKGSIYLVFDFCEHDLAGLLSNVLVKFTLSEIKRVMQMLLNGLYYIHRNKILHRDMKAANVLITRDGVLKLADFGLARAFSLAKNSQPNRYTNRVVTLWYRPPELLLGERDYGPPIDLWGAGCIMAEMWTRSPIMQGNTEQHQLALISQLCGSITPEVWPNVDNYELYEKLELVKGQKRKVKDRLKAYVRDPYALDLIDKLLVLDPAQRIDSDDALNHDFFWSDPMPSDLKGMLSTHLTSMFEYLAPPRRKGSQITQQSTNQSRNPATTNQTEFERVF
# EXPERIMENT_SUMMARY: CDK protein degradation activity (Western blotting), CDK9
# Type: cell-based
# TEST_SETTINGS: MDA-MB-231 cells, 1 μM, 16 hours, Western blot

Answered examples (3):
INSERT INTO measurements (compound, system_tested, observed_result) VALUES
  ('O=C1CC[C@H](N2C(=O)c3cc(F)c(N4CCC(CN5CCN(c6ccc(Nc7ncnc8c7ncn8[C@H]7C[C@@H](NC(=O)c8cccc(Cl)n8)C7)cc6)CC5)CC4)cc3C2=O)C(=O)N1', 'CDK9 (Homo sapiens, UniProt P50750)', '10/10/10%'),
  ('O=C1CC[C@H](N2C(=O)c3cccc(NCC(=O)N4CCC(CN5CCN(c6ccc(Nc7ncnc8c7ncn8[C@H]7C[C@@H](NC(=O)c8cccc(C(F)(F)F)n8)C7)cc6)CC5)CC4)c3C2=O)C(=O)N1', 'CDK9 (Homo sapiens, UniProt P50750)', '0/0/0%'),
  ('Cc1cccc(C(=O)NC2CC(n3cnc4c(NCc5cccc(N6CCN(CC7CCN(C(=O)CNc8cccc9c8C(=O)N([C@H]8CCC(=O)NC8=O)C9=O)CC7)CC6)c5)ncnc43)C2)n1 (stereo partly shown)', 'CDK9 (Homo sapiens, UniProt P50750)', '0/0/0%');

Now let's try a different one.
Q) Let me know recorded Enzyme degradation CDK9 (% remaining) @ 1 μM for Cc1cccc(C(=O)N[C@H]2C[C@@H](n3cnc4c(Nc5ccc(N6CCN(CC7CCN(C(=O)C8CN(c9ccc%10c(c9)C(=O)N([C@H]9CCC(=O)NC9=O)C%10=O)C8)CC7)CC6)cc5C)ncnc43)C2)n1 , thanks.
A) 20/20/20%

====

Recorded Enzyme degradation CDK9 (% remaining) @ 1 μM, one value per entry.
# SYSTEM_TESTED: CDK9 (Homo sapiens, UniProt P50750)
# Construct: endogenous in cells; host or cells: MDA-MB-231
# EXPERIMENT_SUMMARY: CDK protein degradation activity (Western blotting), CDK9
# Assay type: cell-based
# TEST_SETTINGS: MDA-MB-231 cells, 1 μM, 16 hours, Western blot
Form entry: value (%) — number only.

INSERT INTO measurements (molecule, observed_result) VALUES
  ('O=C1CC[C@H](N2C(=O)c3ccc(CCCCN4CCC(N5CCN(c6ccc(Nc7ncnc8c7ncn8C7CC(NC(=O)Cc8ccccc8)C7)cc6)CC5)CC4)cc3C2=O)C(=O)N1 (some centres unmarked) [Compound 408]', 10);

Moving on to the next molecule.
Q) Indicate the recorded Enzyme degradation CDK9 (% remaining) @ 1 μM value for this molecule: O=C1CC[C@@H](c2ccc(OCC(=O)N3CC(N4CCC5(CC4)CC(N4CCN(c6ccc(Nc7ncnc8c7ncn8[C@H]7C[C@@H](NC(=O)Cc8ccccc8)C7)cc6)CC4)C5)C3)cc2)C(=O)N1 [Compound 273]
A) 10

====

# SYSTEM_TESTED: CDK2 (Homo sapiens)
# Construct: endogenous in cells; host or cells: MDA-MB-231
# EXPERIMENT_SUMMARY: CDK protein degradation activity (Western blotting), CDK2
# Type: cell-based
# TEST_SETTINGS: MDA-MB-231 cells, 0.1 μM, 16 hours, Western blot
Reported Enzyme degradation CDK2 (% remaining) @ 0.1 μM values for a set of compounds

Example cases with answers are listed next.
INSERT INTO assay_data (compound, system_tested, observed_result) VALUES
  ('O=C1CC[C@H](N2C(=O)c3cccc(N4CCC(CN5CCC(c6ccc(Nc7ncnc8c7ncn8C7CC(NC(=O)Cc8ccccc8)C7)cc6)CC5)CC4)c3C2=O)C(=O)N1 (stereo partly shown)', 'CDK2 (Homo sapiens)', '20/20/20%'),
  ('O=C1CCC(N2C(=O)c3cccc(OCC(=O)N4CCN(CCCN5CCN(c6ccc(Nc7ncnc8c7ncn8[C@H]7C[C@@H](NC(=O)Cc8ccccc8)C7)cc6)CC5)CC4)c3C2=O)C(=O)N1 (stereo partly shown)', 'CDK2 (Homo sapiens)', '60%'),
  ('O=C1CC[C@H](N2C(=O)c3ccc(N4CCC(C(=O)N5CCC(CN6CCC(CCNc7ncnc8c7ncn8[C@H]7C[C@@H](NC(=O)Cc8ccccc8)C7)CC6)CC5)CC4)cc3C2=O)C(=O)N1', 'CDK2 (Homo sapiens)', '60/60/60%');

Here is another compound to look at.
Q) Tell me measured Enzyme degradation CDK2 (% remaining) @ 0.1 μM for O=C1CC[C@H](N2C(=O)c3cccc(CCCN4CCC(CN5CCN(c6ccc(Nc7ncnc8c7ncn8C7CC(NC(=O)c8cccc(F)n8)C7)cc6)CC5)CC4)c3C2=O)C(=O)N1 (stereo partly shown) please.
A) 30/30/30%

====

# SYSTEM_TESTED: CDK9 (Homo sapiens, UniProt P50750)
# Construct: endogenous in cells; host or cells: MDA-MB-231
# EXPERIMENT_SUMMARY: CDK protein degradation activity (Western blotting), CDK9
# Type: cell-based
# TEST_SETTINGS: MDA-MB-231 cells, 10 μM, 16 hours, Western blot
# key: entry, value: Enzyme degradation CDK9 (% remaining) @ 10 μM

// known answers, use as guide
INSERT INTO results (molecule, observed_result) VALUES
  ('O=C(Cc1cccc(NC2=CC(=O)N(C3CCC(=O)NC3=O)C2=O)c1)NC[C@H]1CC[C@H](CN2CCN(c3ccc(Nc4ncnc5c4ncn5[C@H]4C[C@@H](NC(=O)Cc5ccccc5)C4)cc3)CC2)CC1 (some centres unmarked)', '20/20/20%'),
  ('O=C1CC[C@H](N2C(=O)c3ccc(N4CC(C(=O)N5CCC6(CC5)CC(N5CCN(c7ccc(Nc8ncnc9c8ncn9C8CC(NC(=O)c9c(Cl)cccc9Cl)C8)cc7)CC5)C6)C4)cc3C2=O)C(=O)N1 (some centres unmarked)', '0/0/0%'),
  ('O=C1CC[C@H](N2C(=O)c3ccc(N4CCC5(CC4)CC(N4CCN(c6ccc(Nc7ncnc8c7ncn8C7CC(NC(=O)c8c(Cl)cccc8Cl)C7)cc6)CC4)C5)cc3C2=O)C(=O)N1 (some centres unmarked)', '0/0/0%'),
  ('O=C1CC[C@H](N2C(=O)c3ccc(N4CCC(CN5CCN(c6ccc(Nc7ncnc8c7ncn8C7CC(NC(=O)c8c(Cl)cccc8Cl)C7)cc6)CC5)CC4)cc3C2=O)C(=O)N1 (some centres unmarked)', '0/0/0%');

--- query ---
Q) Please report Enzyme degradation CDK9 (% remaining) @ 10 μM with CDK9 (Homo sapiens, UniProt P50750) for item Cc1cccc(C(=O)N[C@H]2C[C@@H](n3cnc4c(NCc5cccc(N6CCN(C(=O)CNc7ccc8c(c7)C(=O)N([C@H]7CCC(=O)NC7=O)C8=O)CC6)c5)ncnc43)C2)n1 .
A) 60/60/60%

====

# SYSTEM_TESTED: CDK2 (Homo sapiens, UniProt P24941)
# Construct: endogenous in cells; host or cells: MDA-MB-231
# EXPERIMENT_SUMMARY: CDK protein degradation activity (Western blotting), CDK2
# Assay type: cell-based
# TEST_SETTINGS: MDA-MB-231 cells, 1 μM, 16 hours, Western blot
# Protocol: In order to evaluate the CDK protein degradation activity of the compounds according to the present invention, the following experiment was conducted. MDA-MB-231 cells were seeded at 5×10^5 cells per well in a 6-well plate. The next day, the compounds were treated in each well to achieve final concentrations of 100 nM, 1 μM, and 10 μM. […] Cell lysates were quantified and separated by size using sodium dodecyl sulfate-polyacrylamide gel electrophoresis (SDS-PAGE). […]
QUANTITY: Enzyme degradation CDK2 (% remaining) @ 1 μM (%)
Dear colleague, please return just the value in %, with no unit written.

INSERT INTO results (compound, system_tested, unit_annotation, observed_result) VALUES
  ('N#Cc1cccc(C(=O)N[C@H]2C[C@@H](n3cnc4c(Nc5ccc(N6CCN(CC7CCN(C(=O)C8CCN(c9ccc%10c(c9)C(=O)N(C9CCC(=O)NC9=O)C%10=O)CC8)CC7)CC6)cc5)ncnc43)C2)n1 (stereo partly shown)', 'CDK2 (Homo sapiens, UniProt P24941)', '%', 20),
  ('Cc1cccc(C(=O)N[C@H]2C[C@@H](n3cnc4c(NCc5ccc(OCC6CCN(C(=O)CNc7ccc8c(c7)C(=O)N([C@H]7CCC(=O)NC7=O)C8=O)CC6)cc5)ncnc43)C2)n1', 'CDK2 (Homo sapiens, UniProt P24941)', '%', 30);

Now look at this one.
Q) Supply recorded Enzyme degradation CDK2 (% remaining) @ 1 μM for O=C1CC[C@H](N2C(=O)c3cccc(OCC(=O)N4CCC(CC(=O)N5CCN(c6ccc(Nc7ncnc8c7ncn8C7CC(NC(=O)Cc8ccccc8)C7)cc6)CC5)CC4)c3C2=O)C(=O)N1 (stereo partly shown) here.
A) 20
